biological target: XDH (Bos taurus); test: initial-velocity steady-state kinetics of XDH, NAD+ as electron acceptor; assay type: biochemical, bovine; parameters: Bovine milk was obtained from the animal farm of the Nippon Veterinary and Life Science University; from tissue; host or cells: bovine milk; conditions: XDH, substrate hypoxanthine, electron acceptor NAD+, 340 nm; mean ± S.E.
Sequence (P80457 whole entry): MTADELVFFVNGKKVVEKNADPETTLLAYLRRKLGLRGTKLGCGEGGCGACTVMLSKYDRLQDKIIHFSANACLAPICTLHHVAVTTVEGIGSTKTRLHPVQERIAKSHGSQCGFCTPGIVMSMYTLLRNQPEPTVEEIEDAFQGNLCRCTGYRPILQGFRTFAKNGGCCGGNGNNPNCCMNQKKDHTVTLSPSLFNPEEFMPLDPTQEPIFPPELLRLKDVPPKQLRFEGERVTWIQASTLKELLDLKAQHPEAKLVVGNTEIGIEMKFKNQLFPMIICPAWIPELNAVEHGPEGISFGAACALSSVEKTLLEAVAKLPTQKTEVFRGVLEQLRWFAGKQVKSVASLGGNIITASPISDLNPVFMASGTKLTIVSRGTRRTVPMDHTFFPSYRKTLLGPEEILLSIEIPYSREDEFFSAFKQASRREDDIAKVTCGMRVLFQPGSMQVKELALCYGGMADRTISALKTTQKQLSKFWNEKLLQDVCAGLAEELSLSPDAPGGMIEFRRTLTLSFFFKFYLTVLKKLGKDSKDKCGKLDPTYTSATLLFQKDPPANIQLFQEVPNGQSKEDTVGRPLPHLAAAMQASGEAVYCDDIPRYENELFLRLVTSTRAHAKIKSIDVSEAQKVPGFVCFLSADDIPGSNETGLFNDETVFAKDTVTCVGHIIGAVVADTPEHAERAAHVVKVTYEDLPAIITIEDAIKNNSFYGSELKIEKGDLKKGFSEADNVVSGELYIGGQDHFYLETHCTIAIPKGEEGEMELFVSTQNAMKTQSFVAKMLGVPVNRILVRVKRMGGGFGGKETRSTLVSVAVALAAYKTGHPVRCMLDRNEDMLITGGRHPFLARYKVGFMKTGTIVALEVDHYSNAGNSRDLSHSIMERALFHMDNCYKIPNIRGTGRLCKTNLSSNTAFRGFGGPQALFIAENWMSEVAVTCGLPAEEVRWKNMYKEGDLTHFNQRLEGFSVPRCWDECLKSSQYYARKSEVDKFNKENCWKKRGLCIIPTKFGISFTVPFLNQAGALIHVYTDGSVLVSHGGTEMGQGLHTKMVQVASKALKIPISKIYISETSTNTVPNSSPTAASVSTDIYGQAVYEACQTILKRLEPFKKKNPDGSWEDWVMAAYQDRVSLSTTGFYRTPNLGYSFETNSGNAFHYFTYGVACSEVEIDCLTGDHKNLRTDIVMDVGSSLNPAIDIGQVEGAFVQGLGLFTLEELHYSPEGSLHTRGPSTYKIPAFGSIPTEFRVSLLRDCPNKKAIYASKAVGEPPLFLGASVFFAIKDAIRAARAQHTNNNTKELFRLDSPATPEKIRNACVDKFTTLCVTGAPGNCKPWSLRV
Measure Name: Ki (µM)
// units = µM; emit number, no label

Specify Ki for O=c1[nH]c(=O)c2c[nH]nc2[nH]1 , system XDH (Bos taurus).
3.15

* * *

target: XOR (Bos taurus, UniProt P80457); construct: Bovine milk was obtained from the animal farm of the Nippon Veterinary and Life Science University; from tissue; host or cells: bovine milk; assay: XOR kinetics with phenazine methosulfate / cytochrome c reduction (550 nm); format: biochemical, bovine; details: XOR, substrate xanthine, electron acceptor PMS, mean ± S.E.
Sequence (P80457 whole entry): as above
Measure Name: pKi
Note on units: pKi is unitless, being -log10 of a concentration expressed in mol/L.

Quickly give me recorded pKi for O=c1[nH]c(=O)c2c[nH]nc2[nH]1 [Oxypurinol]
5.78

* * *

Biological target: XO (Bos taurus)
Sequence (P80457 whole entry): as above
Test: initial-velocity steady-state kinetics of XO, O2 as electron acceptor
Format: biochemical, bovine
Set-up: Bovine milk was obtained from the animal farm of the Nippon Veterinary and Life Science University; from tissue; host or cells: bovine milk
Description: Bovine milk was obtained from the animal farm of the Nippon Veterinary and Life Science University. […] The dehydrogenase form of the enzyme (XDH) was obtained by reacting XO immediately upon purification with 5 mM DTT at pH 8.5, 25 °C for 1 h. […] The activity was measured by following 295 nm and 340 nm on a UV-1800 or UV1900i spectrophotometer. […] In addition, the enzyme reaction solution was quenched with perchloric acid and neutralized with K2CO3, with products analyzed using HPLC as described below. […]
Measure Name: pKi
Note on pKi: it is the negative log10 of concentration, concentration in mol/L.

Read the entry O=c1[nH]c(=O)c2c[nH]nc2[nH]1 and write its reported pKi.
5.20

Reference for the values: paper PMC10511816
